Values were extracted from ChEMBL document CHEMBL1201862.

Biological target: Caspase-3 (Homo sapiens);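 also: Dose-response selectivity test against caspase-3 for candidate inhibitors of sentrin-specific proteases (SENPs)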
Sequence (P42574 29-175 limits assumed): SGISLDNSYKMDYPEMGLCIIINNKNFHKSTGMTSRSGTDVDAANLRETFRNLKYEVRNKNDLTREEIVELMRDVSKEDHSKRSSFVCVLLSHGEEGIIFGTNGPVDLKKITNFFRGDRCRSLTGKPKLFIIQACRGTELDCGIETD
Sequence (P42574 176-277 limits assumed): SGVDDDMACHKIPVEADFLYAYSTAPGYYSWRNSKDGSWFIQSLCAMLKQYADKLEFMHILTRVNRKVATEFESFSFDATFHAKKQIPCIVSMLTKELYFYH
Type: functional
Active and inactive are the calls of the source.
reported.property: IC50

// solved cases for IC50 follow
Qu. Identify measured IC50 associated with COC(=O)c1ccc(N=Nc2ccccc2)cc1
Ans. 11.6 µM (active)

Qu. Identify measured IC50 associated with COc1cccc(NC(=O)C(S)=NC2CCCCC2)c1
Ans. 17.9 µM (active)

Qu. Identify measured IC50 associated with O=C(Nc1nc2ccccc2s1)c1ccc(Cl)s1
Ans. 10.5 µM (active)

Moving on to the next compound.
Qu. Identify measured IC50 associated with COc1ccccc1NC(=O)CCSc1ccc(C)cc1
Ans. 18.1 µM (active)
